Data origin: patent US4820694A

Measured MIC of individual entries
# Tested on: Haemophilus influenzae C.L.
# assay.summary: standard agar-dilution MIC assay
# Assay type: cell-based
# condition.description: Haemophilus influenzae

compound	bound.sign	MIC (µg/mL)
CCC1OC(=O)CC(O)C(C)C(OC2OC(C)C(O)C(N(C)C)C2O)C(CC=O)CC(C)C(=O)C=CC(C)=CC1COC1OC(C)C(OC(C)=O)C(OC(=O)COc2ccccc2)C1OC (stereo not drawn)	=	16
CCC1OC(=O)CC(O)C(C)C(OC2OC(C)C(OC3CC(C)(O)C(O)C(C)O3)C(N(C)C)C2OC(C)=O)C(CC=O)CC(C)C(=O)C=CC(C)=CC1COC1OC(C)C(OC(C)=O)C(OC(=O)Cc2ccccc2)C1OC (stereo not drawn)	>	128
CCC1OC(=O)CC(O)C(C)C(OC2OC(C)C(O)C(N(C)C)C2O)C(CC=O)CC(C)C(=O)C=CC(C)=CC1COC1OC(C)C2OC(=O)OC2C1OC (stereo not drawn) [Compound 51, Lactenocin-3",4"-Carbonate Derivative]	=	8
CCC1OC(=O)CC(O)C(C)C(OC2OC(C)C(OC3CC(C)(O)C(O)C(C)O3)C(N(C)C)C2OC(C)=O)C(CC=O)CC(C)C(=O)C=CC(C)=CC1COC1OC(C)C(OC(=O)Cc2ccccc2)C(O)C1OC (stereo not drawn)	=	32
CCC1OC(=O)CC(O)C(C)C(OC2OC(C)C(O)C(N(C)C)C2O)C(CC=O)CC(C)C(=O)C=CC(C)=CC1COC1OC(C)C2OC(C)(C)OC2C1OC (stereo not drawn)	=	16
CCC1OC(=O)CC(O)C(C)C(OC2OC(C)C(O)C(N(C)C)C2O)C(CC=O)CC(C)C(=O)C=CC(C)=CC1COC1OC(C)C(OC(=O)CC(C)C)C(O)C1OC (stereo not drawn)	=	8
CCC1OC(=O)CC(O)C(C)C(OC2OC(C)C(O)C(N(C)C)C2O)C(CCN2C[C@H](C)C[C@H](C)C2)CC(C)C(=O)C=CC(C)=CC1COC1OC(C)C=CC1OC (stereo partly drawn)	=	1
CCC1OC(=O)CC(O)C(C)C(OC2OC(C)C(OC3CC(C)(O)C(O)C(C)O3)C(N(C)C)C2O)C(CC=O)CC(C)C(=O)C=CC(C)=CC1COC1OC(C)C(OC(=O)Cc2ccccc2)C(O)C1OC (stereo not drawn)	=	32
CCC1OC(=O)CC(O)C(C)C(OC2OC(C)C(O)C(N(C)C)C2OC(C)=O)C(CC=O)CC(C)C(=O)C=CC(C)=CC1COC1OC(C)C(OC(=O)CC(C)C)C(O)C1OC (stereo not drawn)	=	32

====

# System: Mycoplasma synoviae 40A
# assay.summary: broth-dilution microtiter MIC test
# Assay type: cell-based
# condition.description: Mycoplasmopsis synoviae, 40A
Measured MIC by item

molecule	measure.unit	MIC
CCC1OC(=O)CC(O)C(C)C(OC2OC(C)C(O)C(N(C)C)C2O)C(CC=O)CC(C)C(=O)C=CC(C)=CC1COC1OC(C)C(OC(=O)COc2ccccc2)C(OC(=O)COc2ccccc2)C1OC (stereo not drawn)	µg/mL	1.56
CCC1OC(=O)CC(O)C(C)C(OC2OC(C)C(O)C(N(C)C)C2O)C(CC=O)CC(C)C(=O)C=CC(C)=CC1COC1OC(C)C(OC(=O)CC(C)C)C(OC(=O)CC(C)C)C1OC (stereo not drawn)	µg/mL	12.5
CCC1OC(=O)CC(O)C(C)C(OC2OC(C)C(O)C(N(C)C)C2O)C(CC=O)CC(C)C(=O)C=CC(C)=CC1COC1OC(C)C(OC(=O)Cc2ccccc2)C(O)C1OC (stereo not drawn)	µg/mL	1.56
CCC1OC(=O)CC(O)C(C)C(OC2OC(C)C(O)C(N(C)C)C2O)C(CC=O)CC(C)C(=O)C=CC(C)=CC1COC1OC(C)C2OC(C)(C)OC2C1OC (stereo not drawn)	µg/mL	3.12
CCC1OC(=O)CC(O)C(C)C(OC2OC(C)C(OC3CC(C)(O)C(O)C(C)O3)C(N(C)C)C2OC(C)=O)C(CC=O)CC(C)C(=O)C=CC(C)=CC1COC1OC(C)C(OC(=O)CC(C)C)C(OC(=O)CC(C)C)C1OC (stereo not drawn)	µg/mL	3.12
CCC1OC(=O)CC(O)C(C)C(OC2OC(C)C(O)C(N(C)C)C2O)C(CC=O)CC(C)C(=O)C=CC(C)=CC1COC1OC(C)C(OC(C)=O)C(OC(=O)COc2ccccc2)C1OC (stereo not drawn)	µg/mL	0.78
CCC1OC(=O)CC(O)C(C)C(OC2OC(C)C(OC3CC(C)(O)C(O)C(C)O3)C(N(C)C)C2O)C(CC=O)CC(C)C(=O)C=CC(C)=CC1COC1OC(C)C2OC(=O)OC2C1OC (stereo not drawn) [Compound 49, Macrocin-3'",4'"-Carbonate Derivative]	µg/mL	0.195
CCC1OC(=O)CC(O)C(C)C(OC2OC(C)C(OC3CC(C)(O)C(O)C(C)O3)C(N(C)C)C2OC(C)=O)C(CC=O)CC(C)C(=O)C=CC(C)=CC1COC1OC(C)C(OC(=O)COc2ccccc2)C(O)C1OC (stereo not drawn)	µg/mL	0.39
CCC1OC(=O)CC(O)C(C)C(OC2OC(C)C(O)C(N(C)C)C2O)C(CC=O)CC(C)C(=O)C=CC(C)=CC1COC1OC(C)C(OC(=O)CC(C)C)C(O)C1OC (stereo not drawn)	µg/mL	3.12
CCC1OC(=O)CC(O)C(C)C(OC2OC(C)C(O)C(N(C)C)C2O)C(CC=O)CC(C)C(=O)C=CC(C)=CC1COC1OC(C)C(O)C(OC(=O)Cc2ccccc2)C1OC (stereo not drawn)	µg/mL	1.56
CCC1OC(=O)CC(O)C(C)C(OC2OC(C)C(O)C(N(C)C)C2OC(C)=O)C(CC=O)CC(C)C(=O)C=CC(C)=CC1COC1OC(C)C(OC(C)=O)C(OC(=O)COc2ccccc2)C1OC (stereo not drawn)	µg/mL	0.78
CCC1OC(=O)CC(O)C(C)C(OC2OC(C)C(OC3CC(C)(O)C(O)C(C)O3)C(N(C)C)C2OC(C)=O)C(CC=O)CC(C)C(=O)C=CC(C)=CC1COC1OC(C)C(OC(=O)Cc2ccccc2)C(OC(=O)Cc2ccccc2)C1OC (stereo not drawn)	µg/mL	12.5
